# System: YAP/TAZ
# test-name: YAP/TAZ nuclear localization in IPF patient-derived lung fibroblasts treated with dopaminergic agonists
# Type: cell-based, human
# details: IPF-2 patient fibroblasts; 10 μM, 2 hours
Structures can show the parent of a compound that is named as a salt.
measure: Nuclear localization (% of total cells)

Sample records with Nuclear localization (% of total cells):
compound	Nuclear localization (% of total cells)
CCCN1C[C@H](CSC)C[C@@H]2c3cccc4[nH]cc(c34)C[C@H]21 [Pergolide mesylate, Pergolide]	69.37 % of total cells
Cl.NC[C@@H]1O[C@H](c2ccccc2)Cc2c1ccc(O)c2O [A 68930•HCl, A 68930]	30.59 % of total cells
CCCN(CCC)[C@@H]1CCc2c(OC)cccc2[C@@H]1C.O=C(O)/C=C/C(=O)O [(+)-UH 232 maleate, (+)-UH 232]	68 % of total cells
CC(C)C[C@H]1C(=O)N2CCC[C@H]2[C@]2(O)O[C@](NC(=O)[C@@H]3C=C4c5cccc6[nH]c(Br)c(c56)C[C@H]4N(C)C3)(C(C)C)C(=O)N12 [Bromocriptine mesylate, Bromocriptine]	52.81 % of total cells
NC[C@@H]1O[C@H](C23CC4CC(CC(C4)C2)C3)Cc2c1ccc(O)c2O [A-77636•HCl•H2O, A-77636]	30.88 % of total cells
Br.CCCN1CCc2cc(O)cc3c2[C@H]1Cc1ccc(O)c(O)c1-3	35.25 % of total cells

Respectfully, I request Nuclear localization (% of total cells) for each entry included below.
1. CCCN(CCC)CCc1ccc(O)c(O)c1 [Dipropyldopamine•HBr, Dipropyldopamine]
2. CCCN(CCc1ccccc1)C1CCc2c(O)cccc2C1.Cl (racemic)
3. C=CCN1C[C@H](C(=O)N(CCCN(C)C)C(=O)NCC)C[C@@H]2c3cccc4[nH]cc(c34)C[C@H]21 [Cabergoline]
4. CCCN1CCC[C@@H]2Cc3nc(N)ncc3C[C@H]21.Cl.Cl [LY-163,502•2HCl, LY-163,502]

Response given:
1: 74.36 % of total cells; 2: 60.86 % of total cells; 3: 57.41 % of total cells; 4: 60.97 % of total cells
